# subject-of-test: APOL1 G1 (Homo sapiens, UniProt O14791, I384M/S342G)
# Sequence (O14791 28-398 S342G/I384M): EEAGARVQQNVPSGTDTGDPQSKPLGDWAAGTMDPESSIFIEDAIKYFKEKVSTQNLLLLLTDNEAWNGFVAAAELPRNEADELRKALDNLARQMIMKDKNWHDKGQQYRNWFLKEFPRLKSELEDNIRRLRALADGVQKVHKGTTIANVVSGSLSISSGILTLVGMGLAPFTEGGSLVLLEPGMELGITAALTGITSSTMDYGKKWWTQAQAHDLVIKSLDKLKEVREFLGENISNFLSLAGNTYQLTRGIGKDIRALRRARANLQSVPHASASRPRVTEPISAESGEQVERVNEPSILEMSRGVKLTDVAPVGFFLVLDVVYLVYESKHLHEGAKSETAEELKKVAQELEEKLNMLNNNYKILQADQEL
# method-summary: MultiTox-Fluor Multiplex Cytotoxicity Assay, tet-inducible APOL1 G1 T-REx-HEK293 cells
# Type: cell-based
# Design: expressed in transfected cells; host or cells: T-REx HEK293, clone G1 DC3.25 (pAAVS1-Puro-APOL1 G1)
# condition: HEK293, Multi-Tox Assay; APOL1 variant (G0/G1/G2) of the HEK293 cells not given; read-out: Multi-Tox Assay IC90
assay-metric: IC90

Check out these entries, answers already filled in.
molecule="CCC(O)Cn1cc([C@@H]2C[C@]3(C[C@H](C)N2)OCC(F)(F)c2cc(Cl)sc23)nn1 (some centres unmarked)" endpoint_result="50 to 500 nM"
molecule="CCC(O)Cn1cc([C@@H]2C[C@]3(C[C@H](C)N2)OC[C@@H](O)c2cc(Cl)sc23)nn1 (some centres unmarked)" endpoint_result="50 to 500 nM"
molecule="Cc1nc([C@@H]2C[C@]3(C[C@H](C)N2)OCCc2cc(Cl)sc23)c[nH]1 (racemic)" endpoint_result="> 500 nM"
molecule="CC(C)c1cc2c(s1)C1(C[C@@H](C)N[C@@H](C)C1)OCC2 (single isomer, unassigned)" endpoint_result="> 500 nM"
molecule="C[C@H]1C[C@@]2(C[C@@H](c3cccc(S(N)(=O)=O)c3)N1)OCCc1cc(Cl)sc12 (racemic)" endpoint_result="> 500 nM"
molecule="Cc1cc(C2CC3(CC(C)N2)OCCc2cc(Cl)sc23)ncn1 (centres unmarked)" endpoint_result="< 50 nM"

Find the recorded IC90 belonging to `C[C@H]1C[C@@]2(C[C@@H](c3cn(CCCS(C)(=O)=O)nn3)N1)OC[C@@H](O)c1cc(Cl)sc12` and report it.
50 to 500 nM

Further, for `C[C@H]1C[C@@]2(C[C@@H](c3cn(CC(=O)N4CCCCC4)nn3)N1)OC[C@@H](O)c1cc(Cl)sc12` ?
50 to 500 nM

Please give the result for `C[C@H]1C[C@@]2(C[C@@H](c3cn(Cc4cccc(CO)c4)nn3)N1)OC[C@@H](O)c1cc(Cl)sc12` too.
50 to 500 nM

Now give it for C[C@H]1C[C@@]2(C[C@@H](c3cccnn3)N1)OCCc1cc(Cl)sc12 (racemic) too.
< 50 nM

Then this molecule: C[C@H]1C[C@@]2(C[C@@H](c3ccc[nH]c3=O)N1)OCCc1cc(Cl)sc12 (racemic)
50 to 500 nM

Next: CC1COC2(C[C@@H](c3cn(C)nn3)N[C@@H](C)C2)c2cc(C(F)(F)F)sc21 (some centres unmarked)
50 to 500 nM

`C[C@H]1C[C@@]2(C[C@@H](c3cn(Cc4ccc5nc(O)[nH]c5c4)nn3)N1)OC[C@@H](O)c1cc(Cl)sc12` ?
> 500 nM

`C[C@H]1C[C@@]2(C[C@@H](c3cn(C)nn3)N1)OCCc1cc(C(F)(F)F)sc12` ?
< 50 nM

Also check COc1nn(C)cc1[C@@H]1C[C@]2(C[C@H](C)N1)OCCc1cc(Cl)sc12 (racemic)
> 500 nM

Please answer likewise for Cn1cc(C2CC3(CC(C4CCC4)N2)OCCc2cc(C(F)(F)F)sc23)nn1 (centres unmarked)
50 to 500 nM

Could you do the same for `C[C@H]1C[C@@]2(C[C@@H](c3cnc(-c4cnn(C)c4)nc3)N1)OCCc1cc(Cl)sc12` , please?
< 50 nM

Again, but for C[C@H]1C[C@@]2(C[C@@H](c3cc(C4CC4)no3)N1)OCCc1cc(Cl)sc12 (racemic)
< 50 nM
